Biological target: T1, Bbc1, P47068
T1 sequence (P47068 1-78, looked up): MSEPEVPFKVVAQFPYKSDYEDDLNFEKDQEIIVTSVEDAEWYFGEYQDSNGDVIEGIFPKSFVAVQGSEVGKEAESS
Experiment: SPOT array
Conditions: median of control spots 796
quantity.kind: SPOT intensity
Keep the answer to the number alone.

Record summary for RSKRLFPVRPMATAH : reported SPOT intensity = 49

Record summary for VGFRLALKFPSRITG : reported SPOT intensity = 663

Record summary for LFMKGTPEFPKSGFS : reported SPOT intensity = 1

Record summary for SKSRLLIELPEGFFT : reported SPOT intensity = 0

Record summary for GDHPKGPPPPPPPDE : reported SPOT intensity = 1

Record summary for AGKRRLPLVRFKASD : reported SPOT intensity = 507

Record summary for GATNNAPTLPKRKNP : reported SPOT intensity = 6
